# Measured target: 5-HT2B (Homo sapiens)
# Sequence (P41595 whole entry): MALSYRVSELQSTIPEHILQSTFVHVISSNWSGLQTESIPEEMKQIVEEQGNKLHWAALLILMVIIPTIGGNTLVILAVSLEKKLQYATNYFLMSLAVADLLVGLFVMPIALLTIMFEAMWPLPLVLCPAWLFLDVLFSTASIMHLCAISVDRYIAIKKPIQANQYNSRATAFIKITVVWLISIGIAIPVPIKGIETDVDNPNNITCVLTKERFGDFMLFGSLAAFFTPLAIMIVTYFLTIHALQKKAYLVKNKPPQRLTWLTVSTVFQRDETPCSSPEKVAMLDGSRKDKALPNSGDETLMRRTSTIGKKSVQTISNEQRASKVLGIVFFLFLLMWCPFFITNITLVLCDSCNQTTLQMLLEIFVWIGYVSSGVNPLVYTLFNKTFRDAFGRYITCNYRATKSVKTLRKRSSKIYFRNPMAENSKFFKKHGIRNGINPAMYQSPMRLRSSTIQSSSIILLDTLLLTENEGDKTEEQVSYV
# Experiment description: IPOne (IP1 HTRF) assay, CHO-K1 cells expressing human 5-HT2B
# Type: cell-based
# Set-up: expressed in transfected cells; host or cells: CHO-K1
# Experimental setup: CHO-K1; @0.3 uM; percentage of reference agonist α-Me-5-HT at its EC100
Endpoint: activation at 0.3 µM
Kindly write the number and append the unit.

Data point: OC[C@@H]1CCCN1CCc1c[nH]c2ccccc12 [Compound 31] ; activation at 0.3 µM = 54.6%

Data point: OC1CCN(CCc2c[nH]c3ccccc23)C1 (stereo not shown) [Compound 7] ; activation at 0.3 µM = 5.71%

Data point: OCC1CCCN1CCc1c(Br)[nH]c2ccc(F)cc12 (stereo not shown) [Compound 69] ; activation at 0.3 µM = 27.6%

Data point: COc1ccc2[nH]cc(CCN3CCC[C@H]3CO)c2c1 [Compound 50] ; activation at 0.3 µM = 101%

Data point: CC[C@@H](O)[C@@H]1CCCN1CCc1c[nH]c2ccccc12 [Compound 77] ; activation at 0.3 µM = 18.2%

Data point: OC[C@@H]1CCCN1CCc1c(Br)[nH]c2ccccc12 [Compound 57] ; activation at 0.3 µM = -1.03%

Data point: OC[C@@H]1CCCN1CCc1c[nH]c2cccc(O)c12 [Compound 49] ; activation at 0.3 µM = 92%

Data point: OC[C@@H]1CCCN1CCc1c[nH]c2ccc(F)cc12 [Compound 59] ; activation at 0.3 µM = 79.8%

Data point: COc1ccc2[nH]c(Br)c(CCN3CCCC3CO)c2c1 (stereo not shown) [Compound 72] ; activation at 0.3 µM = 13.5%

Data point: OC[C@@H]1CCCN1CCc1c[nH]c2ccc(OC(F)(F)F)cc12 [Compound 61] ; activation at 0.3 µM = 37.5%

Data point: COC(=O)[C@H]1CCCN1CCc1c[nH]c2ccccc12 [Compound 34] ; activation at 0.3 µM = 1.34%

Data point: CC(C)(O)[C@@H]1CCCN1CCc1c[nH]c2ccccc12 [Compound 74] ; activation at 0.3 µM = 63%

Data point: OC[C@H]1CCCN1CCc1c[nH]c2ccccc12 [Compound 32] ; activation at 0.3 µM = 4.28%

Data point: OC[C@@H]1CCN1CCc1c[nH]c2ccccc12 [Compound 54] ; activation at 0.3 µM = 62%

Data point: OC[C@H]1CCN1CCc1c[nH]c2ccccc12 [Compound 53] ; activation at 0.3 µM = 16.3%

Data point: COc1cccc2[nH]c(Br)c(CCN3CCCC3CO)c12 (stereo not shown) [Compound 67] ; activation at 0.3 µM = 19.2%

Data point: COC(=O)[C@@H]1CCCN1CCc1c[nH]c2ccccc12 [Compound 33] ; activation at 0.3 µM = 33.9%

Data point: OCC1CCCN1CCc1c[nH]c2ccccc12 (stereo not shown) [Compound 3] ; activation at 0.3 µM = 25.9%

Data point: OCC1CCCN1CCc1c[nH]c2cccc(O)c12 (stereo not shown) [Compound 29] ; activation at 0.3 µM = 90.8%

* * *

# Measured target: 5-HT2A (Homo sapiens, UniProt P28223)
# Sequence (P28223 whole entry): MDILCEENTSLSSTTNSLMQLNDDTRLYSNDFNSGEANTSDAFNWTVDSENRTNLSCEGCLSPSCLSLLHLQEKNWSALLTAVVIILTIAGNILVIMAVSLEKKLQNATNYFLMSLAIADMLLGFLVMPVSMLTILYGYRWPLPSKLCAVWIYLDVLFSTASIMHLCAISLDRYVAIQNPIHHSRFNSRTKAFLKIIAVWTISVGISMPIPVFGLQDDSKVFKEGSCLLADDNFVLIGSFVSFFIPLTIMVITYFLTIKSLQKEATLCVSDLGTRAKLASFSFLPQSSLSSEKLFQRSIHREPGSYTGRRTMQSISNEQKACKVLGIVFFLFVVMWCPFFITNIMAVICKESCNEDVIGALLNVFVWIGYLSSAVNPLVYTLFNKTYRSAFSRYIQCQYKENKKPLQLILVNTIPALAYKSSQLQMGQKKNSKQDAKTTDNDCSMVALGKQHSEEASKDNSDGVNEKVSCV
# Experiment description: IPOne (IP1 HTRF) assay, CHO-K1 cells expressing human 5-HT2A
# Format: cell-based
# Set-up: expressed in transfected cells; host or cells: CHO-K1
# Experimental setup: CHO-K1; @30 uM; percentage of reference agonist α-Me-5-HT at its EC100
Endpoint: activation at 30 µM
Kindly write the number and append the unit.

Item OCC1CCCN1CCc1c(Cl)[nH]c2ccc(F)cc12 (stereo not drawn) ; assay system 5-HT2A (Homo sapiens, UniProt P28223); activation at 30 µM reported as 97.7%

Item C[C@H](O)[C@@H]1CCCN1CCc1c[nH]c2ccccc12 ; assay system 5-HT2A (Homo sapiens, UniProt P28223); activation at 30 µM reported as 101%

Item CCOC(=O)[C@@H]1CCCN1CCc1c[nH]c2ccccc12 ; assay system 5-HT2A (Homo sapiens, UniProt P28223); activation at 30 µM reported as 101%

Item COc1ccc2[nH]cc(CCN3CCC[C@H]3CO)c2c1 ; assay system 5-HT2A (Homo sapiens, UniProt P28223); activation at 30 µM reported as 103%

Item OC[C@@H]1CCCN1CCc1c(Br)[nH]c2ccccc12 ; assay system 5-HT2A (Homo sapiens, UniProt P28223); activation at 30 µM reported as 30.9%

Item COc1cccc2[nH]c(Br)c(CCN3CCCC3CO)c12 (stereo not drawn) ; assay system 5-HT2A (Homo sapiens, UniProt P28223); activation at 30 µM reported as 95.9%

Item COc1ccc2[nH]c(Br)c(CCN3CCCC3CO)c2c1 (stereo not drawn) ; assay system 5-HT2A (Homo sapiens, UniProt P28223); activation at 30 µM reported as 37.6%

Item CC[C@@H](O)[C@@H]1CCCN1CCc1c[nH]c2ccccc12 ; assay system 5-HT2A (Homo sapiens, UniProt P28223); activation at 30 µM reported as 90.6%

Item NCC1CCCN1CCc1c[nH]c2ccccc12 (stereo not drawn) ; assay system 5-HT2A (Homo sapiens, UniProt P28223); activation at 30 µM reported as 99%
